Tested on: iPSC-CMs, iPSC-ECs and HUVECs phenotypes
ASSAY TEXT: ToxPi 2.0 integration of POD values and physicochemical descriptors
Parameters: species or system human
CONDITION INFO: ToxPi-scaled (0-1) score; HUVECs, tube formation, 18 h
Counter-ions that a name gives are not always drawn.

# MOLECULE, huvec.tlps.18hr
measured = [
    ("Oc1cccc(-c2ccc(Cl)cc2)c1", 0.8699),
    ("Clc1ccc(Cl)c(-c2c(Cl)ccc(Cl)c2Cl)c1", 0),
    ("Clc1ccc(Cl)c(-c2c(Cl)ccc(Cl)c2Cl)c1Cl [(-)-PCB 136, 2,2′,3,3′,6,6′-hexachlorobiphenyl]", 0.303),
    ("Oc1cc(Cl)cc(-c2cccc(Cl)c2)c1", 0),
    ("Clc1ccc(Cl)c(-c2cc(Cl)ccc2Cl)c1", 0),
    ("O=S(=O)(O)Oc1ccc(-c2ccc(Cl)cc2)cc1 [4'-PCB 3 sulfate]", 0),
    ("O=C1C=CC(=O)C(c2ccc(Cl)cc2)=C1", 0.5585),
]

* * *

Tested on: iCell cardiomyocytes (human iPSC-derived cardiomyocytes)
ASSAY TEXT: High-content imaging of cytotoxicity and mitochondrial integrity in iPSC-CMs
Type: cell-based
CONDITION INFO: Homo sapiens, Cardiomyocyte, 24 h, 100.00 µM; 0.00 µM = 100.00; read-out: cm.cam.24hrs
Counter-ions that a name gives are not always drawn.
Each item that follows carries a reported viability at 100 µM.
QUANTITY: viability at 100 µM (%)

# MOLECULE, VALUE MEASURED
measured = [
    ("Oc1ccccc1-c1ccc(Cl)cc1", 0),
    ("O=S(=O)(O)Oc1ccc(-c2ccc(Cl)cc2)cc1 [4'-yl PCB 3 sulfate]", 104),
    ("O=C1C=CC(=O)C(c2ccc(Cl)cc2)=C1", 66.6),
    ("O=S(=O)(O)Oc1cccc(-c2ccc(Cl)cc2)c1 [3'-yl PCB 3 sulfate]", 97),
]

* * *

# minimal effective concentration listing for each entry below
Test system: HUVECs
ASSAY TEXT: High-content imaging cytotoxicity in HUVECs, 24 h
Type: cell-based, human
CONDITION INFO: Homo sapiens, HUVEC, 24 h, HUVEC, nma, 24 hr; read-out: POD huvec.nma.24hr
Counter-ions that a name gives are not always drawn.

# COMPOUND, READING UNIT, minimal effective concentration
rows = [
    ("O=S(=O)(O)Oc1cccc(-c2ccc(Cl)cc2)c1 [3'-PCB 3 sulfate]", "µM", 100),
    ("O=C1C=CC(=O)C(c2ccc(Cl)cc2)=C1", "µM", 0.53),
    ("Oc1cccc(-c2ccc(Cl)cc2)c1", "µM", 0.04),
]

* * *

Tested on: iCell endothelial cells (human iPSC-derived ECs)
ASSAY TEXT: Tube formation (tubulogenesis) assay in iCell endothelial cells, 18 h
Type: cell-based
CONDITION INFO: Homo sapiens, Endothelial cell, iPSC-EC tube formation, 18 hr, 100.00 µM, 0.00 µM control = 100.00, read-out: endo.mtl.18hr
Counter-ions that a name gives are not always drawn.

# COMPOUND, activity at 100 µM, %
records = [
    ("O=C1C=CC(=O)C(c2ccc(Cl)cc2)=C1", 59.2),
    ("O=S(=O)(O)Oc1cccc(-c2ccc(Cl)cc2)c1 [3'-yl PCB 3 sulfate]", 59.2),
    ("O=S(=O)(O)Oc1ccc(-c2ccc(Cl)cc2)cc1 [4'-yl PCB 3 sulfate]", 60.3),
]
